- measurement_target: mu opiate receptor (Rattus norvegicus, UniProt P33535)
- Construct: from tissue; host or cells: rat brain membranes/homogenate
- Sequence (P33535 whole entry): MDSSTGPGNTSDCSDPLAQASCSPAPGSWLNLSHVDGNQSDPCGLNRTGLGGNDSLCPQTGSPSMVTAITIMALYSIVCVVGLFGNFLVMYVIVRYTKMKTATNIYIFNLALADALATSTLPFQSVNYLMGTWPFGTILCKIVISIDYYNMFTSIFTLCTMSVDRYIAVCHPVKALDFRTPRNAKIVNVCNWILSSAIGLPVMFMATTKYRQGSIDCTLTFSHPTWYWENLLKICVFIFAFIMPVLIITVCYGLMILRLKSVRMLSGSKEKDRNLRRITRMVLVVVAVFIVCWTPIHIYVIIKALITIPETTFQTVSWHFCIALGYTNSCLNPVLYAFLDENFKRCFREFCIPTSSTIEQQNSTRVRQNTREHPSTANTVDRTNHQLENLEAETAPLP
- procedure_summary: Inhibition of [3H]DAMGO binding to the mu opiate receptor in rat brain homogenates
- Set-up: unit not given beside the values
- condition_info: mean bound radioactivity of [3H]DAMGO; 0.08 mg of compound per milliliter, 7 nM 3H-labeled DAMGO, rat brain membranes
Quick reference for Mean among some compounds

compound | Mean
CC(C)CCc1nc(C(C)C)c2n1C(C(C)C)C(=O)N2 (centres unmarked) [Pool 127] | 909.6
CC(C)c1nc(CCC2CCCCC2)n2c1NC(=O)C2C(C)C (centres unmarked) [Pool 148] | 890.8
CSCCc1nc(C)n2c1NC(=O)C2C(C)C (racemic) [Pool 59] | 874.75
Cc1nc(C)n2c1NC(=O)C2C(C)C (centres unmarked) [Pool 51] | 902.75
Cc1nc(C(C)C)c2n1C(CC1CCCCC1)C(=O)N2 (centres unmarked) [Pool 29] | 891.65

----------
- measurement_target: mu opiate receptor (Rattus norvegicus, UniProt P33535)
- Construct: from tissue; host or cells: rat brain membranes/homogenate
- procedure_summary: Inhibition of [3H]DAMGO binding to the mu opiate receptor in rat brain homogenates
- Design: unit not given beside the values
- condition_info: mean bound radioactivity of [3H]DAMGO; 0.08 mg of compound per milliliter, 7 nM 3H-labeled DAMGO, rat brain membranes

compound | measurement_target | Mean
CCC(C)c1nc(C(C)C)c2n1C(C(C)C)C(=O)N2 (mixture of isomers) | mu opiate receptor (Rattus norvegicus, UniProt P33535) | 901.85
CCCc1nc(C)n2c1NC(=O)C2C(C)C (stereo not shown) [Pool 45] | mu opiate receptor (Rattus norvegicus, UniProt P33535) | 902.55
CCCCc1nc(C)n2c1NC(=O)C2C(C)C (stereo not shown) [Pool 44] | mu opiate receptor (Rattus norvegicus, UniProt P33535) | 947.55
Cc1cccc(Cc2nc(C(C)C)c3n2C(C(C)C)C(=O)N3)c1 (racemic) | mu opiate receptor (Rattus norvegicus, UniProt P33535) | 954.15
CC(C)c1nc(CCCC2CCCCC2)n2c1NC(=O)C2C(C)C (stereo not shown) | mu opiate receptor (Rattus norvegicus, UniProt P33535) | 615.55
CC(C)c1nc(CC23CC4CC(CC(C4)C2)C3)n2c1NC(=O)C2C(C)C (stereo not shown) | mu opiate receptor (Rattus norvegicus, UniProt P33535) | 925.85
CCCCC1C(=O)Nc2c(C(C)C)nc(C)n21 (stereo not shown) [Pool 11] | mu opiate receptor (Rattus norvegicus, UniProt P33535) | 756.05
CCCCc1nc(C)n2c1NC(=O)C2C(C)C (racemic) [Pool 60] | mu opiate receptor (Rattus norvegicus, UniProt P33535) | 902.8
Cc1nc(Cc2ccc(O)cc2)c2n1C(C(C)C)C(=O)N2 (stereo not shown) [Pool 48] | mu opiate receptor (Rattus norvegicus, UniProt P33535) | 728.5
Cc1nc(C(C)C)c2n1C(C(C)C)C(=O)N2 (stereo not shown) [Pool 3] | mu opiate receptor (Rattus norvegicus, UniProt P33535) | 974.05
CCCc1nc(C(C)C)c2n1C(C(C)C)C(=O)N2 (racemic) | mu opiate receptor (Rattus norvegicus, UniProt P33535) | 826.45
CC(C)c1nc(CCC2CCCC2)n2c1NC(=O)C2C(C)C (stereo not shown) | mu opiate receptor (Rattus norvegicus, UniProt P33535) | 945.85
Cc1nc(CCCNC(=N)N)c2n1C(C(C)C)C(=O)N2 (stereo not shown) | mu opiate receptor (Rattus norvegicus, UniProt P33535) | 581.65
Cc1nc(C(C)C)c2n1C(C(C)C)C(=O)N2 (stereo not shown) [Pool 36] | mu opiate receptor (Rattus norvegicus, UniProt P33535) | 940.6
Cc1nc(C(C)C)c2n1C(CC(C)C)C(=O)N2 (stereo not shown) [Pool 20] | mu opiate receptor (Rattus norvegicus, UniProt P33535) | 787.6
CCCCC(CC)c1nc(C(C)C)c2n1C(C(C)C)C(=O)N2 (mixture of isomers) | mu opiate receptor (Rattus norvegicus, UniProt P33535) | 881.35
CC(C)c1nc(C2CCCCC2)n2c1NC(=O)C2C(C)C (stereo not shown) | mu opiate receptor (Rattus norvegicus, UniProt P33535) | 933.35
Cc1nc(C(C)C)c2n1C(C(C)C)C(=O)N2 (stereo not shown) [Pool 52] | mu opiate receptor (Rattus norvegicus, UniProt P33535) | 959.85
Cc1nc(C(C)C)c2n1C(CC(C)C)C(=O)N2 (stereo not shown) [Pool 4] | mu opiate receptor (Rattus norvegicus, UniProt P33535) | 980.1
CCCc1nc(C)n2c1NC(=O)C2C(C)C (racemic) [Pool 61] | mu opiate receptor (Rattus norvegicus, UniProt P33535) | 677.65
CC(C)c1nc(CC2CCCCC2)n2c1NC(=O)C2C(C)C (stereo not shown) | mu opiate receptor (Rattus norvegicus, UniProt P33535) | 877.8
CCC(C)C1C(=O)Nc2c(C(C)C)nc(C)n21 (stereo not shown) [Pool 21] | mu opiate receptor (Rattus norvegicus, UniProt P33535) | 833.5
CCCC1C(=O)Nc2c(C(C)C)nc(C)n21 (stereo not shown) [Pool 28] | mu opiate receptor (Rattus norvegicus, UniProt P33535) | 932.9
CC(C)c1nc(C2(c3ccccc3)CC2)n2c1NC(=O)C2C(C)C (racemic) | mu opiate receptor (Rattus norvegicus, UniProt P33535) | 830
CC(C)c1nc(CCCc2ccccc2)n2c1NC(=O)C2C(C)C (racemic) | mu opiate receptor (Rattus norvegicus, UniProt P33535) | 716.3
Cc1nc(CCCCN)c2n1C(C(C)C)C(=O)N2 (stereo not shown) | mu opiate receptor (Rattus norvegicus, UniProt P33535) | 858.1
CCC(C)c1nc(C)n2c1NC(=O)C2C(C)C (stereo not shown) [Pool 54] | mu opiate receptor (Rattus norvegicus, UniProt P33535) | 815.2
Cc1nc(CC2CCCCC2)c2n1C(C(C)C)C(=O)N2 (racemic) [Pool 62] | mu opiate receptor (Rattus norvegicus, UniProt P33535) | 805
CCCCC1C(=O)Nc2c(C(C)C)nc(C)n21 (stereo not shown) [Pool 27] | mu opiate receptor (Rattus norvegicus, UniProt P33535) | 871.25
COc1ccc(Cc2nc(C(C)C)c3n2C(C(C)C)C(=O)N3)cc1OC (racemic) | mu opiate receptor (Rattus norvegicus, UniProt P33535) | 870.35
CC(C)c1nc(Cc2ccc(F)cc2)n2c1NC(=O)C2C(C)C (racemic) | mu opiate receptor (Rattus norvegicus, UniProt P33535) | 758.2
CCC(CC)c1nc(C(C)C)c2n1C(C(C)C)C(=O)N2 (stereo not shown) | mu opiate receptor (Rattus norvegicus, UniProt P33535) | 930.35
CCC(C)C1C(=O)Nc2c(C(C)C)nc(C)n21 (stereo not shown) [Pool 5] | mu opiate receptor (Rattus norvegicus, UniProt P33535) | 1052.8
CC(C)c1nc(Cc2ccc(Br)cc2)n2c1NC(=O)C2C(C)C (racemic) | mu opiate receptor (Rattus norvegicus, UniProt P33535) | 682.95
